solubility kinetic reference
details: buffer; pH 7.4; 200.0 µM
metric: solubility kinetic (µg/mL)

O=C(NC12CC3CC(CC(C3)C1)C2)N1CCN(c2ccccc2)CC1 = 12.7
COc1ccc(S(=O)(=O)N2CCNCC2)cc1 = 31.1
COC(=O)C1CN(C(=O)COc2ccccc2)c2ccccc2O1 (centres undefined) = 48.7
Nc1nc(NCCO)nc(NC2CCCCC2)c1[N+](=O)[O-] = 39.1
CCc1noc(C)c1C(=O)N1CCN(S(=O)(=O)c2ccc(Cl)s2)CC1 = 55.4
CC(=O)c1c(O)c2ccccc2n(Cc2ccccc2)c1=O = 11.8
CC(C)CCOc1ccc(C(=O)C[N+]2(C)CCOCC2)cc1.[I-] = 38.4
CC(C)Sc1ccc([N+](=O)[O-])cc1C(=O)Nc1ccncc1 = 40.8
COc1cc(/C=C/C(=O)OCC(=O)NC(=O)NCc2ccco2)ccc1OC(F)F = 7.1
N/C(CS(=O)(=O)c1ccccc1)=N\OC(=O)c1ccc(F)cc1 = 8.8

* * *

conditions: buffer; pH 7.4; 200.0 µM
Each entry below carries its recorded solubility kinetic.
metric: solubility kinetic (µg/mL)

CC1CC(=O)Nc2ccccc2N1S(=O)(=O)c1cccc(F)c1 (stereo not drawn) = 30
CC1=C(C)CC(C(=O)Nc2nccs2)C(C(=O)O)C1 (stereo not drawn) = 40.6
Nc1nonc1OCCOCCOCCOc1nonc1N = 45.7
Cc1ccc(C2CC3CCC(C2)N3Cc2ccccc2F)cc1 (stereo not drawn) = 26.8
Cc1ccc(S(=O)(=O)N2CCC(C(=O)NCc3ccccc3CN3CCCC3)CC2)cc1 = 66.3
c1cc(OCCCN2CCCCC2)ccc1CN1CCCCC1 = 44.7
Clc1ccc2oc(SCc3cccnc3)nc2c1 = 3.5
COc1ccccc1NC(=S)N1CCn2cccc2C1c1cccnc1 (stereo not drawn) = 42.2
COC(=O)c1ccccc1N=Cc1c(O)[nH]c(=O)[nH]c1=O = 8.4
O=C(CCCc1ccccc1)NCCc1ccccc1 = 29.3
CCOc1ccccc1NC(=O)Cn1c(=O)sc2ccccc21 = 1.2
COC(=O)c1ccc2nc(-c3cccc(N)c3)cn2c1 = 33.5
Cc1ccc(SCC(=O)c2ccc[nH]2)cc1 = 24.6
CCn1c(=O)c2sccc2n(Cc2ccc(C)cc2)c1=O = 0.4
CC(C)Oc1cccc(C(=O)C2CCCN(C3CCOCC3)C2)c1 (stereo not drawn) = 31
COc1ccccc1/C=N/OC(=O)c1ccc(F)cc1 = 0.7

* * *

conditions: buffer; pH 7.4; 200.0 µM
solubility kinetic values by entry
metric: solubility kinetic

CCOc1cc(C=O)ccc1OCC(N)=O = > 33.5 µg/mL
COc1ccc(C(=O)NCCCNC(=O)c2ccco2)cc1OC = > 49.9 µg/mL
Cc1cccc(NC(=O)N2CCCCCC2)c1 = > 34.8 µg/mL
c1ccc2[nH]cnc2c1 = > 17.7 µg/mL
O=C(COC(=O)c1ccccc1Br)NCCC1=CCCCC1 = 22.5 µg/mL
CN(C)c1cccc(C(=O)OCC(=O)c2ccc[nH]2)c1 = > 40.8 µg/mL
NS(=O)(=O)c1ccc(CCNC(=O)CNC(=O)Cc2ccccc2)cc1 = > 56.3 µg/mL
O=C(CCc1c[nH]c2ccccc12)OCc1cccc(C(F)(F)F)c1 = 1 µg/mL
Cc1cc(C)cc(NC(=O)c2cccc(N3C(=O)C4C5C=CC(C5)C4C3=O)c2)c1 (stereo not drawn) = < 0.4 µg/mL
CC(C)(C)c1cc(CCC(=O)N2CCC2)cc(C(C)(C)C)c1O = 42.6 µg/mL
O=C(Nc1ncccc1Cl)c1cc2ccccc2o1 = 11.4 µg/mL
CC(C)n1c(COc2ccccc2)nc2ccccc21 = 24.1 µg/mL
O=[N+]([O-])c1ccccc1S(=O)(=O)N1CCCC(C(F)(F)F)C1 (stereo not drawn) = 3.1 µg/mL
CC1(C)CC(=O)C(C=NCCN2CCN(C(=O)CCl)CC2)=C(O)C1 = > 53.4 µg/mL
NS(=O)(=O)c1cccc(NC(=O)C2CC(=O)N(Cc3ccco3)C2)c1 (stereo not drawn) = > 54.5 µg/mL
COc1cc(S(=O)(=O)NCc2ccncc2)c(OC)cc1C = > 48.4 µg/mL
COc1ccc(CNC(=O)c2ccc[nH]2)cc1 = > 34.5 µg/mL
O=C(NCCN1CCOCC1)Nc1cccc(Cl)c1 = 40.1 µg/mL
